B1: ZNF24 (parent)
chain: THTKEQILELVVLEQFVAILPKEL

- Variants of: B1
- experimentDescription: protein stability index of a GFP-peptide fusion (GPS, HEK-293T) (PSI 1-6); higher = more stable;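 also: lentivirally expressed fusions sorted by FACS into six bins by GFP to DsRed ratio, PSI derived from sequencing read proportions per bin multiplied by bin number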
- studyConditions: c terminus: a fixed tail appended
Items are presented alongside their recorded protein stability index.
readoutType: protein stability index

>>> print(df.to_string())
                      chainsequence              readouttype  obsvalue
 0   TFTKEQILELVVLEQFVAILPKEL [H2F]  protein stability index       2.4
 1  THTKEQILELVVLCQFVAILPKEL [E14C]  protein stability index      2.45
 2  THTKEQILELVVLEVFVAILPKEL [Q15V]  protein stability index      3.51
 3  THTKEQILECVVLEQFVAILPKEL [L10C]  protein stability index      2.42
 4  THTKEQILELVVLEQFVAILPKFL [E23F]  protein stability index      2.69
 5  THTKEQILELVVLEQFVPILPKEL [A18P]  protein stability index      2.48
 6   THTKEQILTLVVLEQFVAILPKEL [E9T]  protein stability index      2.29
 7  THTKEQILELVVLEQFVAINPKEL [L20N]  protein stability index      1.83
 8  THTKEQILELVVLEQFRAILPKEL [V17R]  protein stability index      1.66
 9   THTPEQILELVVLEQFVAILPKEL [K4P]  protein stability index      2.23
10  THTKEQILESVVLEQFVAILPKEL [L10S]  protein stability index      1.72
11   VHTKEQILELVVLEQFVAILPKEL [T1V]  protein stability index      3.19
12  THTKEQILEPVVLEQFVAILPKEL [L10P]  protein stability index      2.09
13   THTKEQICELVVLEQFVAILPKEL [L8C]  protein stability index      2.75
14   THTKEQRLELVVLEQFVAILPKEL [I7R]  protein stability index       1.9
15  THTKEQILELVVLFQFVAILPKEL [E14F]  protein stability index      2.48
16  THTKEQILELMVLEQFVAILPKEL [V11M]  protein stability index       2.6
17  THTKEQILELVVLEQFVAILGKEL [P21G]  protein stability index      2.21
18  THTKEQILELVVLEQFVAILPKED [L24D]  protein stability index      1.67
19  THTKEQILELVWLEQFVAILPKEL [V12W]  protein stability index      2.42
20   THTKEGILELVVLEQFVAILPKEL [Q6G]  protein stability index      3.09
21   TDTKEQILELVVLEQFVAILPKEL [H2D]  protein stability index      4.11
22   THKKEQILELVVLEQFVAILPKEL [T3K]  protein stability index      2.96
23   THTKELILELVVLEQFVAILPKEL [Q6L]  protein stability index      3.47
24   THTKEQILCLVVLEQFVAILPKEL [E9C]  protein stability index      1.64
25   THTKSQILELVVLEQFVAILPKEL [E5S]  protein stability index      1.57
26   THTKEQALELVVLEQFVAILPKEL [I7A]  protein stability index      1.74
27  THTKEQILELVVLEQFVRILPKEL [A18R]  protein stability index      2.05
28  THTKEQILEMVVLEQFVAILPKEL [L10M]  protein stability index      2.69
29  THTKEQILELVPLEQFVAILPKEL [V12P]  protein stability index      2.19
30  THTKEQILELVVLEQFVAILPKEN [L24N]  protein stability index      1.06
31   THSKEQILELVVLEQFVAILPKEL [T3S]  protein stability index      3.88
32  THTKEQILELVTLEQFVAILPKEL [V12T]  protein stability index      1.99
33  THTKEQILELVVLEQFVAILDKEL [P21D]  protein stability index      4.16
34   THTKEQIAELVVLEQFVAILPKEL [L8A]  protein stability index      2.28
35   THTKCQILELVVLEQFVAILPKEL [E5C]  protein stability index      2.31
36  THTKEQILELVVLEQFYAILPKEL [V17Y]  protein stability index      2.53
37   THFKEQILELVVLEQFVAILPKEL [T3F]  protein stability index      2.76
38   THTKEQILQLVVLEQFVAILPKEL [E9Q]  protein stability index      2.69
39   LHTKEQILELVVLEQFVAILPKEL [T1L]  protein stability index      1.56
40  THTKEQILELVVLEQFLAILPKEL [V17L]  protein stability index      2.47
41   IHTKEQILELVVLEQFVAILPKEL [T1I]  protein stability index      2.73
42  THTKEQILELVVLEQFVAILHKEL [P21H]  protein stability index       3.6
43  THTKEQILELVVLEQGVAILPKEL [F16G]  protein stability index      1.69
44   EHTKEQILELVVLEQFVAILPKEL [T1E]  protein stability index      2.81
45   THTKEWILELVVLEQFVAILPKEL [Q6W]  protein stability index      2.41
46   THTKECILELVVLEQFVAILPKEL [Q6C]  protein stability index      2.11
47   THHKEQILELVVLEQFVAILPKEL [T3H]  protein stability index      2.23
48  THTKEQILELVVLEQFWAILPKEL [V17W]  protein stability index      2.19
49  THTKEQILELVVLEQFVAILPKES [L24S]  protein stability index      2.86
50  THTKEQILELVVLEQFVAYLPKEL [I19Y]  protein stability index      2.18
51  THTKEQILELVVLPQFVAILPKEL [E14P]  protein stability index      2.12
52  THTKEQILELVVLEQFVAILPKAL [E23A]  protein stability index      2.59
53  THTKEQILELVVFEQFVAILPKEL [L13F]  protein stability index      2.47
54  THTKEQILELVVLEQFIAILPKEL [V17I]  protein stability index      2.94
55  THTKEQILELVVLEQFVAILPKEG [L24G]  protein stability index      2.16
56  THTKEQILELVQLEQFVAILPKEL [V12Q]  protein stability index      2.05
57   THTKEMILELVVLEQFVAILPKEL [Q6M]  protein stability index      3.56
58  THTKEQILELVVLEFFVAILPKEL [Q15F]  protein stability index      2.79
59  THTKEQILELVVLEQFVAIWPKEL [L20W]  protein stability index      4.08
60   RHTKEQILELVVLEQFVAILPKEL [T1R]  protein stability index      1.94
61  THTKEQILELVVLEQFVAILEKEL [P21E]  protein stability index      2.23
62  THTKEQILELVVLEMFVAILPKEL [Q15M]  protein stability index      2.63
63  THTKEQILELVVLEQFVAPLPKEL [I19P]  protein stability index      1.73
64  THTKEQILELVVLRQFVAILPKEL [E14R]  protein stability index      2.95
65   THTKIQILELVVLEQFVAILPKEL [E5I]  protein stability index      3.67
66   DHTKEQILELVVLEQFVAILPKEL [T1D]  protein stability index      2.63
67  THTKEQILELVVLEQFVAILPKWL [E23W]  protein stability index      3.51
68   THTCEQILELVVLEQFVAILPKEL [K4C]  protein stability index      3.41
69  THTKEQILELVVLEQFVANLPKEL [I19N]  protein stability index       1.7
70   THNKEQILELVVLEQFVAILPKEL [T3N]  protein stability index       3.1
71   THTIEQILELVVLEQFVAILPKEL [K4I]  protein stability index      3.38
72  THTKEQILEFVVLEQFVAILPKEL [L10F]  protein stability index      2.35
73  THTKEQILELVVLEQFVAILYKEL [P21Y]  protein stability index      3.02
74  THTKEQILELVVCEQFVAILPKEL [L13C]  protein stability index      1.98
75  THTKEQILELVVGEQFVAILPKEL [L13G]  protein stability index      1.84
76  THTKEQILEHVVLEQFVAILPKEL [L10H]  protein stability index      1.65
77   NHTKEQILELVVLEQFVAILPKEL [T1N]  protein stability index      2.86
78  THTKEQILELVVLEQHVAILPKEL [F16H]  protein stability index      2.13
79   THTKNQILELVVLEQFVAILPKEL [E5N]  protein stability index      3.01
80  THTKEQILELVVMEQFVAILPKEL [L13M]  protein stability index      2.18
81  THTKEQILELVVLEQFVTILPKEL [A18T]  protein stability index       2.2
82  THTKEQILELVVLEQFVAVLPKEL [I19V]  protein stability index       4.1
83  THTKEQILELVVLEQFVQILPKEL [A18Q]  protein stability index      2.48
84   THTKEQWLELVVLEQFVAILPKEL [I7W]  protein stability index      2.51
85  THTKEQILEEVVLEQFVAILPKEL [L10E]  protein stability index      2.12
86   THGKEQILELVVLEQFVAILPKEL [T3G]  protein stability index      4.09
87   THTKEQILHLVVLEQFVAILPKEL [E9H]  protein stability index      3.25
88  THTKEQILELVVLEQFVNILPKEL [A18N]  protein stability index      2.67
89  THTKEQILELVVLEQFVAMLPKEL [I19M]  protein stability index      3.34
90  THTKEQILELVVLEQFEAILPKEL [V17E]  protein stability index      1.91

Cited source for all entries: the supplement of paper PMC10567573
